# ASSAY_TEXT: Toxicity liver stage against HepG2, at 10uM
# Assay type: cell-based
# Set-up: test concentration 10 uM, cell line HepG2-A16-CD81EGFP
# ASSAY_SETUP: human, HepG2-A16-CD81EGFP cells; read-out: INHIBITION
Listed here: items and their measured cytotoxicity at 10 µM.

MOLECULE: Cc1cc(Br)c(O)c(-c2nc(N3CCOCC3)sc2C)c1
cytotoxicity at 10 µM [%]: 74.4
//
MOLECULE: CN(C)c1nc2c(c(=O)[nH]1)CCN(C(=O)c1c[nH]c(=O)c(Cl)c1)C2
cytotoxicity at 10 µM [%]: 6.32
//
MOLECULE: CN(Cc1ccccc1-n1cccn1)C[C@@H]1CCCN2CCCC[C@H]12
cytotoxicity at 10 µM [%]: -8.2
//
MOLECULE: N#Cc1cccc(N2CCC3(CCC(=O)N(CC4CCCO4)C3)CC2)n1 (stereo unspecified)
cytotoxicity at 10 µM [%]: 4.11
//
MOLECULE: Cc1cccc(C2(CNC(=O)CO)CCCC2)c1
cytotoxicity at 10 µM [%]: -19.1
//
MOLECULE: COc1ccc(-c2cc3nc(CCNC(=O)C4CC4)nn3cn2)cc1
cytotoxicity at 10 µM [%]: 8.38
//
MOLECULE: O=S(=O)(NCCNc1cc(-n2cccn2)ncn1)c1cccs1
cytotoxicity at 10 µM [%]: -6.58
//
MOLECULE: C1CCC(CN2Cc3nnn(CC4CC4)c3C(COCC3CC3)C2)C1 (stereo unspecified)
cytotoxicity at 10 µM [%]: 19.7
//
MOLECULE: O=C(c1cnc(O)cc1O)N1CCCC(CCc2ccccc2F)C1 (stereo unspecified)
cytotoxicity at 10 µM [%]: -2.24
//
MOLECULE: CN1CCN(c2ccc(NC(=O)c3ccccn3)c(C(F)(F)F)c2)CC1
cytotoxicity at 10 µM [%]: 0.753
//
MOLECULE: COc1ccc(OC)c(C2CCN(C3CCOCC3)C2)c1 (stereo unspecified)
cytotoxicity at 10 µM [%]: -6.28

* * *

Listed here: items and their measured cytotoxicity at 10 µM.
# ASSAY_TEXT: Toxicity liver stage against HepG2, at 10uM
# Assay type: cell-based
# Design: test concentration 10 uM, cell line HepG2-A16-CD81EGFP
# ASSAY_SETUP: human, HepG2-A16-CD81EGFP cells; read-out: INHIBITION

MOLECULE: O=C(c1cccc2ncccc12)N1CCC(Nc2cccnn2)CC1
UNIT_INFO: %
cytotoxicity at 10 µM: -14.7
//
MOLECULE: COCC(NC(=O)c1ccoc1C)c1cccc(C(F)(F)F)c1 (configuration not stated)
UNIT_INFO: %
cytotoxicity at 10 µM: -5.95
//
MOLECULE: COCCn1cc(CC(=O)Nc2nc3c(s2)CCC3)c2ccccc21
UNIT_INFO: %
cytotoxicity at 10 µM: 32.8
//
MOLECULE: CC(C)N1CC(c2ncc(-c3ccc4c(c3)OCCO4)[nH]2)CC1=O (configuration not stated)
UNIT_INFO: %
cytotoxicity at 10 µM: 0.166
//
MOLECULE: Cc1ccccc1[C@@H]1CN(Cc2c(C)noc2C)C[C@H]1C(=O)O
UNIT_INFO: %
cytotoxicity at 10 µM: -7.74
//
MOLECULE: CNC(=O)c1cccnc1N1CCN(Cc2ccccc2)C(CCO)C1 (configuration not stated)
UNIT_INFO: %
cytotoxicity at 10 µM: -6.03
//
MOLECULE: O=C(CCc1ccco1)Nc1cc(C(F)(F)F)c[nH]c1=O
UNIT_INFO: %
cytotoxicity at 10 µM: 13.9
//
MOLECULE: CCN(C)S(=O)(=O)N1CCCC1CC(=O)c1cccs1 (configuration not stated)
UNIT_INFO: %
cytotoxicity at 10 µM: -29
//
MOLECULE: Cc1cc(C)n(CC2CCCN2C(=O)c2ccc(NC3CC3)nc2)n1 (configuration not stated)
UNIT_INFO: %
cytotoxicity at 10 µM: 6.53
//
MOLECULE: CC(C)NS(=O)(=O)c1cc(C(=O)O)cc(-n2cc3c(n2)CCC3)c1
UNIT_INFO: %
cytotoxicity at 10 µM: 3.19
//
MOLECULE: C[C@@H]1C[C@H]2CN(S(=O)(=O)c3ccc(F)cc3)C[C@H]2O1
UNIT_INFO: %
cytotoxicity at 10 µM: 3.26
//
MOLECULE: O=C(Nc1nncs1)N1CCC(CCO)CC1
UNIT_INFO: %
cytotoxicity at 10 µM: -2.48
//
MOLECULE: COc1cccc(-c2cc(NCc3nc(C)cs3)n(C)n2)c1
UNIT_INFO: %
cytotoxicity at 10 µM: -0.717
//
MOLECULE: Cn1cc(CN2C[C@@H]3COC[C@]3(C(=O)N3CCCO3)C2)cn1
UNIT_INFO: %
cytotoxicity at 10 µM: 12.1
//
MOLECULE: COCCN1CCC2(CC1)CN(C(=O)c1ccco1)CCO2
UNIT_INFO: %
cytotoxicity at 10 µM: -1.27
//
MOLECULE: Cc1n[nH]c(CN2CCN(CC3CC3)[C@@H]3CS(=O)(=O)C[C@@H]32)n1
UNIT_INFO: %
cytotoxicity at 10 µM: -15.8
//
MOLECULE: CCc1noc(C(C)N2CCN(Cc3noc(C)n3)CC2)n1 (configuration not stated)
UNIT_INFO: %
cytotoxicity at 10 µM: -4.48
//
MOLECULE: c1ccc2cc(OCCN3CCn4c(nnc4C4CC4)C3)ccc2c1
UNIT_INFO: %
cytotoxicity at 10 µM: 5.49
//
MOLECULE: O=C(c1ccoc1)N1CCC(O)(C(F)(F)F)CC1
UNIT_INFO: %
cytotoxicity at 10 µM: 3.88
//
MOLECULE: COc1ccc(C(=O)NC2CC2)c(OC)c1
UNIT_INFO: %
cytotoxicity at 10 µM: -3.51
//
MOLECULE: CC(C)CNC(=O)[C@H]1CCS(=O)(=O)[C@@H]2CN(Cc3ccc(F)cc3)C[C@H]12
UNIT_INFO: %
cytotoxicity at 10 µM: 1.26
//
MOLECULE: Cc1cnc(CNC(=O)N(Cc2ccccc2)CC(C)(C)O)s1
UNIT_INFO: %
cytotoxicity at 10 µM: -3.22
//
MOLECULE: COc1cccc(CNc2nc(N3CCOCC3)ns2)c1OC
UNIT_INFO: %
cytotoxicity at 10 µM: -2.76
//
MOLECULE: CCN(CC)Cc1ccc(C(=O)N2CCN(CC(C)O)CC2)o1 (configuration not stated)
UNIT_INFO: %
cytotoxicity at 10 µM: -9.65
//
MOLECULE: COc1cccc(CC(=O)NCCc2nnc3n2CCCCC3)c1
UNIT_INFO: %
cytotoxicity at 10 µM: -18.4
//
MOLECULE: CS(=O)(=O)N[C@@H]1CCN(Cc2cccnc2)[C@H]1Cc1ccccc1
UNIT_INFO: %
cytotoxicity at 10 µM: -74.5
//
MOLECULE: CN1CCC(C2CCN(Cc3cccc(-n4cccn4)c3)CC2)C1 (configuration not stated)
UNIT_INFO: %
cytotoxicity at 10 µM: -6.15
//
MOLECULE: Cc1occc1C(=O)N1CCC2(CCCN(CC3CC3)C2=O)C1 (configuration not stated)
UNIT_INFO: %
cytotoxicity at 10 µM: -4.58
//
MOLECULE: CC(c1ccccc1)N(C)CC(=O)NCCC#N (configuration not stated)
UNIT_INFO: %
cytotoxicity at 10 µM: 3.52
//
MOLECULE: COc1cc(N2C[C@H](C(=O)N3CCCC3)[C@@H]3CCO[C@@H]3C2)ncn1
UNIT_INFO: %
cytotoxicity at 10 µM: -0.211
//
MOLECULE: CCOCC1CC2(CCN(C(=O)c3cscn3)CC2)CO1 (configuration not stated)
UNIT_INFO: %
cytotoxicity at 10 µM: 2.42
//
MOLECULE: Fc1cccc(CN2CCC(c3cc4ncccc4cn3)CC2)c1F
UNIT_INFO: %
cytotoxicity at 10 µM: -7.62
//
MOLECULE: CCOc1ccc(-c2nc(C(=O)NCC3CCOC3)cs2)cc1 (configuration not stated)
UNIT_INFO: %
cytotoxicity at 10 µM: -4.33
//
MOLECULE: Cc1cc(F)ccc1CN1CCCC2(C1)OCCO2
UNIT_INFO: %
cytotoxicity at 10 µM: -11.8
//
MOLECULE: CNS(=O)(=O)CCCN1CCN(C(C#N)c2ccccc2)CC1 (configuration not stated)
UNIT_INFO: %
cytotoxicity at 10 µM: 7.7
//
MOLECULE: NC(=O)CNC(=O)c1ccc(CNCc2ccc(Cl)cc2Cl)cc1
UNIT_INFO: %
cytotoxicity at 10 µM: -41.5
//
MOLECULE: COCc1nc(Cn2c(C)cc(C(F)(F)F)cc2=O)no1
UNIT_INFO: %
cytotoxicity at 10 µM: -2.74
//
MOLECULE: Cc1ccc(OC2(C(=O)O)CCN(C(=O)c3nc(C)oc3C)CC2)cn1
UNIT_INFO: %
cytotoxicity at 10 µM: -9.41
//
MOLECULE: Cn1ccc(C(=O)N2CCCC(Cc3cccc4cccnc34)C2)n1 (configuration not stated)
UNIT_INFO: %
cytotoxicity at 10 µM: -8.44
//
MOLECULE: CC(C)C(=O)NC1COC2(CCN(C(=O)c3cccnc3)CC2)C1 (configuration not stated)
UNIT_INFO: %
cytotoxicity at 10 µM: 4.26
//
MOLECULE: CN(C)C(=O)c1cn2cc(-c3ccccc3Cl)n(CC3CC3)c(=O)c2n1
UNIT_INFO: %
cytotoxicity at 10 µM: -1.43
//
MOLECULE: CN(C)Cc1nnc2n1CCN(Cc1cccnc1)C2
UNIT_INFO: %
cytotoxicity at 10 µM: -0.588
//
MOLECULE: COCCN1C(=O)CC(c2cccnc2)C12CCN(C)CC2 (configuration not stated)
UNIT_INFO: %
cytotoxicity at 10 µM: -97.6
//
MOLECULE: Cn1cccc(NC(=O)NCc2cccc(CO)c2)c1=O
UNIT_INFO: %
cytotoxicity at 10 µM: -55.5
//
MOLECULE: Cc1cc(N2CCCC2c2cnccn2)ncn1 (configuration not stated)
UNIT_INFO: %
cytotoxicity at 10 µM: 2.44
//
MOLECULE: O=C(O)c1cccc(CC2CCN(c3ncccn3)CC2)c1
UNIT_INFO: %
cytotoxicity at 10 µM: -134
//
MOLECULE: COc1cc2nc3n(c(=O)c2cc1OC)CCN(C(=O)C1CC1)CC3
UNIT_INFO: %
cytotoxicity at 10 µM: -13.6
